Test method notes: Antifungal activity against Lichtheimia ornata clinical isolate after 24 hrs by EUCAST method
Format: functional
Numbered stars: 1 amine (or outer) side, 2 acyl side, 3 side chain; on linkers, the order of the positions; unused ones are H or OH. Bridge positions count the residues as written; N and C are the ends. Square brackets hold non-standard residues; d marks the D form. Peptide text beside a SMILES is read from it. * marks the point of attachment. hTyr(3S-OH,4S-OH,3'-OSO3H) = N[C@H](C(=O)O)[C@H](O)[C@@H](O)c1ccc(O)c(OS(=O)(=O)O)c1; pTerphenylCO(4''-OnC5H11) = CCCCCOc1ccc(-c2ccc(-c3ccc(C(=O)*)cc3)cc2)cc1; Orn(4R-OH,5R-OH) = O=C([C@H](C[C@@H](O)[C@@H](O)N[*:3])N[*:1])[*:2]; hTyr(3S-OH,4S-OH) = N[C@H](C(=O)O)[C@H](O)[C@@H](O)c1ccc(O)cc1; Pro(3S-OH,4S-Me) = C[C@H]1CN[C@H](C(=O)O)[C@H]1O; X1 = CCCCCOc1ccc(-c2cc(-c3ccc(C(=O)*)cc3)no2)cc1; Gln(3R-OH) = NC(=O)C[C@@H](O)[C@H](N)C(=O)O; Hyp = O=C(O)[C@@H]1C[C@@H](O)CN1
Listed below: MIC values for each entry.
Form entry: value (µg/mL) — number only.

MIC reported for this compound CCC(C)n1ncn(-c2ccc(N3CCN(c4ccc(OCC5COC(Cn6cncn6)(c6ccc(Cl)cc6Cl)O5)cc4)CC3)cc2)c1=O (centres undefined) : 0.5

Just so you know, measured MIC for C[C@@H](c1ncncc1F)[C@](O)(Cn1cncn1)c1ccc(F)cc1F came out at 16

CCCCCOc1ccc(-c2cc(-c3ccc(C(=O)N[C@H]4C[C@@H](O)[C@@H](O)NC(=O)[C@@H]5[C@@H](O)[C@@H](C)CN5C(=O)[C@H]([C@H](O)CC(N)=O)NC(=O)[C@H]([C@H](O)[C@@H](O)c5ccc(O)c(OS(=O)(=O)O)c5)NC(=O)[C@@H]5C[C@@H](O)CN5C(=O)[C@H]([C@@H](C)O)NC4=O)cc3)no2)cc1 [MICAFUNGIN] (X1-[Orn(4R-OH,5R-OH)]T[Hyp][hTyr(3S-OH,4S-OH,3'-OSO3H)][Gln(3R-OH)][Pro(3S-OH,4S-Me)]; lactam 1-C) yielded MIC of 32

More entries:
The measured MIC associated with CC[C@H](C)C[C@H](C)CCCCCCCCC(=O)N[C@H]1C[C@@H](O)[C@@H](NCCN)NC(=O)[C@@H]2[C@@H](O)CCN2C(=O)[C@H]([C@H](O)CCN)NC(=O)[C@H]([C@H](O)[C@@H](O)c2ccc(O)cc2)NC(=O)[C@@H]2C[C@@H](O)CN2C(=O)[C@H]([C@@H](C)O)NC1=O reads 32

Lab book: MIC of C[C@@H]1[C@H](O)[C@@H](C)/C=C/C=C/C=C/C=C/C=C/C=C/C=C/[C@H](O[C@@H]2O[C@H](C)[C@@H](O)[C@H](N)[C@@H]2O)C[C@@H]2O[C@](O)(C[C@@H](O)C[C@@H](O)[C@H](O)CC[C@@H](O)C[C@@H](O)CC(=O)O[C@H]1C)C[C@H](O)[C@H]2C(=O)O noted as 0.12

Kindly note the recorded MIC for CN(C/C=C/C#CC(C)(C)C)Cc1cccc2ccccc12 , which is 0.25

Quick note, MIC for C[C@@H](c1nc(-c2ccc(C#N)cc2)cs1)[C@](O)(Cn1cncn1)c1ccc(F)cc1F landed at 1

Value of MIC reported for the compound CC[C@@H]([C@H](C)O)n1ncn(-c2ccc(N3CCN(c4ccc(OC[C@@H]5CO[C@@](Cn6cncn6)(c6ccc(F)cc6F)C5)cc4)CC3)cc2)c1=O is 0.25

// MIC value for CCCCCOc1ccc(-c2ccc(-c3ccc(C(=O)N[C@H]4C[C@@H](O)[C@@H](O)NC(=O)[C@@H]5[C@@H](O)[C@@H](C)CN5C(=O)[C@H]([C@@H](C)O)NC(=O)[C@H]([C@H](O)[C@@H](O)c5ccc(O)cc5)NC(=O)[C@@H]5C[C@@H](O)CN5C(=O)[C@H]([C@@H](C)O)NC4=O)cc3)cc2)cc1 [ANIDULAFUNGIN] ({pTerphenylCO(4''-OnC5H11)}-[Orn(4R-OH,5R-OH)]T[Hyp][hTyr(3S-OH,4S-OH)]T[Pro(3S-OH,4S-Me)]; lactam 1-C) : 4

###

Test method notes: Antifungal activity against Lichtheimia ramosa clinical isolate after 48 hrs by EUCAST method
Assay type: functional
Numbered stars: 1 amine (or outer) side, 2 acyl side, 3 side chain; on linkers, the order of the positions; unused ones are H or OH. Bridge positions count the residues as written; N and C are the ends. Square brackets hold non-standard residues; d marks the D form. Peptide text beside a SMILES is read from it. * marks the point of attachment. hTyr(3S-OH,4S-OH,3'-OSO3H) = N[C@H](C(=O)O)[C@H](O)[C@@H](O)c1ccc(O)c(OS(=O)(=O)O)c1; pTerphenylCO(4''-OnC5H11) = CCCCCOc1ccc(-c2ccc(-c3ccc(C(=O)*)cc3)cc2)cc1; Orn(4R-OH,5R-OH) = O=C([C@H](C[C@@H](O)[C@@H](O)N[*:3])N[*:1])[*:2]; hTyr(3S-OH,4S-OH) = N[C@H](C(=O)O)[C@H](O)[C@@H](O)c1ccc(O)cc1; Pro(3S-OH,4S-Me) = C[C@H]1CN[C@H](C(=O)O)[C@H]1O; X1 = CCCCCOc1ccc(-c2cc(-c3ccc(C(=O)*)cc3)no2)cc1; Gln(3R-OH) = NC(=O)C[C@@H](O)[C@H](N)C(=O)O; Hyp = O=C(O)[C@@H]1C[C@@H](O)CN1
Observed property: MIC (µg/mL)
Give a bare numeral; the unit µg/mL is implied.

Answered cases to consult:
Entry under test: CC[C@H](C)C[C@H](C)CCCCCCCCC(=O)N[C@H]1C[C@@H](O)[C@@H](NCCN)NC(=O)[C@@H]2[C@@H](O)CCN2C(=O)[C@H]([C@H](O)CCN)NC(=O)[C@H]([C@H](O)[C@@H](O)c2ccc(O)cc2)NC(=O)[C@@H]2C[C@@H](O)CN2C(=O)[C@H]([C@@H](C)O)NC1=O [CASPOFUNGIN] . Its MIC was 21.4

Per the record, CCCCCOc1ccc(-c2ccc(-c3ccc(C(=O)N[C@H]4C[C@@H](O)[C@@H](O)NC(=O)[C@@H]5[C@@H](O)[C@@H](C)CN5C(=O)[C@H]([C@@H](C)O)NC(=O)[C@H]([C@H](O)[C@@H](O)c5ccc(O)cc5)NC(=O)[C@@H]5C[C@@H](O)CN5C(=O)[C@H]([C@@H](C)O)NC4=O)cc3)cc2)cc1 [ANIDULAFUNGIN] ({pTerphenylCO(4''-OnC5H11)}-[Orn(4R-OH,5R-OH)]T[Hyp][hTyr(3S-OH,4S-OH)]T[Pro(3S-OH,4S-Me)]; lactam 1-C) has MIC of 5.15

Switching to the query record.
Item: CCCCCOc1ccc(-c2cc(-c3ccc(C(=O)N[C@H]4C[C@@H](O)[C@@H](O)NC(=O)[C@@H]5[C@@H](O)[C@@H](C)CN5C(=O)[C@H]([C@H](O)CC(N)=O)NC(=O)[C@H]([C@H](O)[C@@H](O)c5ccc(O)c(OS(=O)(=O)O)c5)NC(=O)[C@@H]5C[C@@H](O)CN5C(=O)[C@H]([C@@H](C)O)NC4=O)cc3)no2)cc1 [MICAFUNGIN] (X1-[Orn(4R-OH,5R-OH)]T[Hyp][hTyr(3S-OH,4S-OH,3'-OSO3H)][Gln(3R-OH)][Pro(3S-OH,4S-Me)]; lactam 1-C) | MIC: 21.4

###

Test method notes: Antifungal activity against Lichtheimia ramosa clinical isolate after 48 hrs by EUCAST method
Format: functional
Readings of MIC for the listed molecules
Output spec: scalar in µg/mL, unitless text.

// below: answered molecules
Per the records, this molecule ( C[C@@H](c1ncncc1F)[C@](O)(Cn1cncn1)c1ccc(F)cc1F [VORICONAZOLE] ) has MIC equal to 15.1

Measured MIC, C[C@@H](c1nc(-c2ccc(C#N)cc2)cs1)[C@](O)(Cn1cncn1)c1ccc(F)cc1F [RAVUCONAZOLE] : 3.42

GET /value?item= CCC(C)n1ncn(-c2ccc(N3CCN(c4ccc(OCC5COC(Cn6cncn6)(c6ccc(Cl)cc6Cl)O5)cc4)CC3)cc2)c1=O (stereo unspecified) [ITRACONAZOLE] &field=MIC returns 2.38

Given item CN(C/C=C/C#CC(C)(C)C)Cc1cccc2ccccc12 [TERBINAFINE] , the value recorded as its MIC is 1

Per the record, C[C@@H]1[C@H](O)[C@@H](C)/C=C/C=C/C=C/C=C/C=C/C=C/C=C/[C@H](O[C@@H]2O[C@H](C)[C@@H](O)[C@H](N)[C@@H]2O)C[C@@H]2O[C@](O)(C[C@@H](O)C[C@@H](O)[C@H](O)CC[C@@H](O)C[C@@H](O)CC(=O)O[C@H]1C)C[C@H](O)[C@H]2C(=O)O [AMPHOTERICIN B] has MIC of 0.14

Turning now to a further record.
Measured MIC of CC[C@@H]([C@H](C)O)n1ncn(-c2ccc(N3CCN(c4ccc(OC[C@@H]5CO[C@@](Cn6cncn6)(c6ccc(F)cc6F)C5)cc4)CC3)cc2)c1=O [POSACONAZOLE] : 0.69

Measured values drawn from ChEMBL document CHEMBL1275242 for this set.
